Give pIC50 for every item shown.
Molecular target: IL17-RE-IL-17C (Homo sapiens, UniProt Q8NFR9+Q9P0M4)
Sequence (Q9P0M4 whole entry): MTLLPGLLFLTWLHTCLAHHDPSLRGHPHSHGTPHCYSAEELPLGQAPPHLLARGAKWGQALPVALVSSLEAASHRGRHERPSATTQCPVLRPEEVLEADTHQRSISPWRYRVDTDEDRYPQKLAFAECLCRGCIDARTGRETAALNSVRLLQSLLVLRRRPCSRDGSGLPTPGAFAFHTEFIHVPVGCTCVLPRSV
Sequence (Q8NFR9 whole entry): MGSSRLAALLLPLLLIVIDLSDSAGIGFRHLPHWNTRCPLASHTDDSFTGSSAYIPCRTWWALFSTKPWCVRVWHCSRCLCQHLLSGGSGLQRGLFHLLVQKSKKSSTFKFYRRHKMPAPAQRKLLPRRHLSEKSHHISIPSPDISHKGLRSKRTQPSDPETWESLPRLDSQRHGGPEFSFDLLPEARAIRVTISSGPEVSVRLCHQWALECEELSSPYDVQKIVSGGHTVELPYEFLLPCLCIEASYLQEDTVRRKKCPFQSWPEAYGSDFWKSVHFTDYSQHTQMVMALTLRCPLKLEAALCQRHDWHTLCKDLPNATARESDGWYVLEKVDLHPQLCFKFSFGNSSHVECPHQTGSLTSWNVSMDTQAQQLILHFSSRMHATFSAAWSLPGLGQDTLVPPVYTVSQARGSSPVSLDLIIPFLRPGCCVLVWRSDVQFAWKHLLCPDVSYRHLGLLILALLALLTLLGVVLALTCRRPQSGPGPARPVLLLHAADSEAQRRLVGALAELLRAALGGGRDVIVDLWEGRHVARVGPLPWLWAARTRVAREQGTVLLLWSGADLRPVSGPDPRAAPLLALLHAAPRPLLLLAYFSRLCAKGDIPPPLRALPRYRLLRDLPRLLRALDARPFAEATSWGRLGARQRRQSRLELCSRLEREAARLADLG
Test: Inhibition of IL-17C/IL-17RE interaction (unknown origin) incubated for 1.5 hrs by ELISA method
Positions of bridges follow the written chain, without caps; N, C: chain ends. Residues, ends and D or L forms follow the SMILES beside them.
Give bare numbers, as −log10 of the molar value.

| compound | system.tested | value.reported |
| --- | --- | --- |
| CC[C@H](C)[C@@H]1NC(=O)[C@H](Cc2c[nH]cn2)NC(=O)[C@H](Cc2ccc(O)cc2)NC(=O)CSC[C@@H](C(=O)NCC(N)=O)NC(=O)CNC(=O)[C@H](CC(C)C)NC(=O)[C@H](C)NC(=O)CNC(=O)[C@H](Cc2ccc(O)cc2)NC(=O)[C@H](CC(C)C)NC(=O)[C@H](CO)NC(=O)[C@H](C)NC(=O)[C@H](Cc2ccc(O)cc2)NC(=O)[C@H](Cc2ccc(O)cc2)NC1=O ({CH2CO}-YHIYYASLYGALGCG-NH2; thioether N-14) | IL17-RE-IL-17C (Homo sapiens, UniProt Q8NFR9+Q9P0M4) | 8.04 |
| CC[C@H](C)[C@@H]1NC(=O)[C@H](Cc2c[nH]cn2)NC(=O)[C@H](Cc2ccc(O)cc2)NC(=O)CSC[C@@H](C(=O)NCC(N)=O)NC(=O)CNC(=O)[C@H](CC(C)C)NC(=O)[C@H](CC(C)C)NC(=O)CNC(=O)[C@H](Cc2ccc(O)cc2)NC(=O)[C@H](CC(C)C)NC(=O)[C@H](CO)NC(=O)[C@H](C)NC(=O)[C@H](Cc2ccc(O)cc2)NC(=O)[C@H](Cc2ccc(O)cc2)NC1=O ({CH2CO}-YHIYYASLYGLLGCG-NH2; thioether N-14) | IL17-RE-IL-17C (Homo sapiens, UniProt Q8NFR9+Q9P0M4) | 7.92 |

From here, focus on the item given below.
IN: Query pIC50 for CC(C)C[C@@H]1NC(=O)[C@H](CC(N)=O)NC(=O)CNC(=O)[C@H](Cc2ccc(O)cc2)NC(=O)[C@H](CC(C)C)NC(=O)[C@H](CO)NC(=O)[C@H](C(C)C)NC(=O)[C@H](Cc2ccc(O)cc2)NC(=O)[C@H](Cc2ccc(O)cc2)NC(=O)[C@H](CC(C)C)NC(=O)[C@H](Cc2c[nH]cn2)NC(=O)[C@H](Cc2ccc(O)cc2)NC(=O)CSC[C@@H](C(=O)NCC(N)=O)NC(=O)CNC1=O ({CH2CO}-YHLYYVSLYGNLGCG-NH2; thioether N-14)
OUT: 8.19
